Target: SARS-CoV-2 S1 (antigen of the Carterra SPR kinetics) (SARS-CoV-2, UniProt P0DTC2 16-685)
Assay: Carterra SPR
readout-kind: kon (M⁻¹ s⁻¹)

* 1-3 (antibody, V domains shown, also called variant 1-3) VH: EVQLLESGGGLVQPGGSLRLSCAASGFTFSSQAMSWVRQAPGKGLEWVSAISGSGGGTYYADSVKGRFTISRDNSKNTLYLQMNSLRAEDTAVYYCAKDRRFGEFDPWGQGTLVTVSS VL: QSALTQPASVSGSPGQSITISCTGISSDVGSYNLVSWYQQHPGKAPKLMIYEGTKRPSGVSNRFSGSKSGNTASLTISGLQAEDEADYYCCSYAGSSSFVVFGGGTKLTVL | 1.42e+06

The measurements presented in this section are drawn from patent US20210395344A1.
